Ref: patent US20240158446A1

Measured log10(Kd) of individual entries
biological target: UniProt P01116; assay: Binding to KRAS by surface plasmon resonance (SPR), Single Cycle Kinetics; details: SPR, Single Cycle Kinetics, GDP-bound KRAS wild-type protein; read-out: KRAS KD
Readout name: log10(Kd) (log10 of the value in nM)

- Compound smiles: "CCO[C@@H]1CCN2C(=O)[C@H](CCc3cc(F)c(C(F)(F)F)c(F)c3)NC(=O)CN(C)C(=O)[C@H](Cc3ccc(C(F)(F)F)cc3)N3CCCC[C@@H](C3=O)N(C)C(=O)CN(C)C(=O)[C@H]([C@@H](C)CC)NC(=O)[C@H](CC(C)C)N(C)C(=O)C[C@@H](C(=O)N3CCOCC3)N(C)C(=O)[C@H](C3CCCC3)N(C)C(=O)C3(CCC3)NC(=O)[C@H]12"
  Reported measurement: -0.64
- Compound smiles: "CCO[C@@H]1C[C@H]2C(=O)NC3(CC(C)(C)C3)C(=O)N(C)[C@@H](C(CC)CC)C(=O)N(C)[C@H](C(=O)N(C)C)CC(=O)N(C)[C@@H](CC3CC3)C(=O)N[C@@H]([C@@H](C)CC)C(=O)N(C)CC(=O)N(C)[C@H]3C/C=C\\CCN(C3=O)[C@@H](CC3CCC(F)(F)CC3)C(=O)N(C)CC(=O)N[C@@H](CCc3ccc(C(F)(F)F)c(OC)c3)C(=O)N2C1"
  Reported measurement: -0.08
- Compound smiles: "CCCOC[C@H]1C(=O)N[C@@H]([C@@H](C)CC)C(=O)N(C)CC(=O)N(C)[C@H]2C/C=C\\CCN(C2=O)[C@@H](Cc2ccc(C(F)(F)F)cc2)C(=O)N(C)CC(=O)N[C@@H](CCc2ccc(C(F)(F)F)c(OC)c2)C(=O)N2C[C@H](OCC)C[C@H]2C(=O)NC2(CCC2)C(=O)N(C)[C@@H](C2CCCC2)C(=O)N(C)[C@H](C(=O)N(C)CC)CC(=O)N1C"
  Reported measurement: -0.96
- Compound smiles: "CCO[C@@H]1C[C@H]2C(=O)NC3(CCC3)C(=O)N(C)[C@@H](C3CCCC3)C(=O)N(CC)[C@H](C(=O)N3CCOCC3)CC(=O)N(C)[C@@H](COC)C(=O)N[C@@H]([C@@H](C)CC)C(=O)N(C)CC(=O)N(C)[C@H]3CCCCCN(C3=O)[C@@H](Cc3ccc(C(F)(F)F)cc3)C(=O)N(C)CC(=O)N[C@@H](CCc3cc(F)c(C(F)(F)F)c(F)c3)C(=O)N2C1"
  Reported measurement: 0.34
- Compound smiles: "CCO[C@@H]1C[C@H]2C(=O)NC3(CC(C)(C)C3)C(=O)N(C)[C@@H](C3CCCC3)C(=O)N(C)[C@H](C(=O)N(C)C)CC(=O)N(C)[C@@H](CC3CCC3)C(=O)N[C@@H]([C@@H](C)CC)C(=O)N(C)CC(=O)N(C)[C@H]3C/C=C\\CCN(C3=O)[C@@H](Cc3ccc(C(F)(F)F)cc3)C(=O)N(C)CC(=O)N[C@@H](CCc3cc(F)c(Cl)c(F)c3)C(=O)N2C1"
  Reported measurement: -0.59
- Compound smiles: "CCC[C@H]1C(=O)N[C@@H]([C@@H](C)CC)C(=O)N2CCC[C@H]2C(=O)N(C)[C@H]2C/C=C\\CCN(C2=O)[C@@H](Cc2ccc(C)cc2)C(=O)N(C)CC(=O)N[C@@H](CCc2cc(F)c(C(F)(F)F)c(F)c2)C(=O)N2C[C@H](OCC)C[C@H]2C(=O)N(C)C2(CCC2)C(=O)N(C)[C@@H](C2CCCC2)C(=O)N(C)[C@H](C(=O)N2CCCCC2)CC(=O)N1C"
  Reported measurement: 0.41
- Compound smiles: "CCCN(C)C(=O)[C@@H]1CC(=O)N(C)[C@@H](C2CC2)C(=O)N[C@@H]([C@@H](C)CC)C(=O)N(C)CC(=O)N(C)[C@H]2C/C=C\\CCN(C2=O)[C@@H](Cc2ccc(C(F)(F)F)cc2)C(=O)N(C)CC(=O)N[C@@H](CCc2ccc(C(F)(F)F)c(OC)c2)C(=O)N2C[C@@H](C)C[C@H]2C(=O)NC2(CCC2)C(=O)N(C)[C@@H](C2CCCC2)C(=O)N1C"
  Reported measurement: -0.96
- Compound smiles: "CCOC[C@H]1C(=O)N[C@@H]([C@@H](C)CC)C(=O)N(C)CC(=O)N(C)[C@H]2C/C=C\\CCN(C2=O)[C@@H](Cc2ccc(C(F)(F)F)cc2)C(=O)N(C)CC(=O)N[C@@H](CCc2ccc(C(F)(F)F)c(OC)c2)C(=O)N2C[C@@H](C)C[C@H]2C(=O)NC2(CCC2)C(=O)N(C)[C@@H](C2CCCC2)C(=O)N(C)[C@H](C(=O)N(C)CC)CC(=O)N1C"
  Reported measurement: -1.05
- Compound smiles: "CCC[C@H]1C(=O)N[C@@H]([C@@H](C)CC)C(=O)N(C)CC(=O)N(C)[C@H]2C/C=C\\CCN(C2=O)[C@@H](Cc2ccc(C)cc2)C(=O)N(C)CC(=O)N[C@@H](CCc2ccc(C(F)(F)F)c(OC)c2)C(=O)N2C[C@H](C)C[C@H]2C(=O)NC2(CC(C)(C)C2)C(=O)N(C)[C@@H](C2CCCC2)C(=O)N(C)[C@H](C(=O)N(C)CC)CC(=O)N1C"
  Reported measurement: -0.54
- Compound smiles: "CCO[C@@H]1C[C@H]2C(=O)NC3(CCC3)C(=O)N(C)[C@@H](C3CCCC3)C(=O)N(C)[C@H](C(=O)N(C)C)CC(=O)N(C)[C@@H](Cc3cccs3)C(=O)N[C@@H]([C@@H](C)CC)C(=O)N(C)CC(=O)N(C)[C@H]3CCCCCN(C3=O)[C@@H](Cc3ccc(F)cc3)C(=O)N(C)CC(=O)N[C@@H](CCc3cc(F)c(C(F)(F)F)c(F)c3)C(=O)N2C1"
  Reported measurement: -1.02
- Compound smiles: "CC[C@H](C)[C@@H]1NC(=O)[C@H](CC)N(C)C(=O)C[C@@H](C(=O)N(CC)CC)N(C)C(=O)[C@H](C2CCCC2)N(C)C(=O)C2(CC(C)(C)C2)NC(=O)[C@@H]2C[C@@H](C)CN2C(=O)[C@H](CCc2ccc(C(F)(F)F)c(OC)c2)NC(=O)CN(C)C(=O)[C@H](Cc2ccc(C)cc2)N2CC/C=C\\C[C@@H](C2=O)N(C)C(=O)CN(C)C1=O"
  Reported measurement: -0.42

---

target: GDP-bound KRAS wild-type protein (Homo sapiens); test: Binding to KRAS by surface plasmon resonance (SPR), Single Cycle Kinetics; conditions: SPR Single Cycle Kinetics, GDP-bound KRAS wild-type protein, 1:1 binding model; read-out: KRAS KD
Sequence (P01116 whole entry): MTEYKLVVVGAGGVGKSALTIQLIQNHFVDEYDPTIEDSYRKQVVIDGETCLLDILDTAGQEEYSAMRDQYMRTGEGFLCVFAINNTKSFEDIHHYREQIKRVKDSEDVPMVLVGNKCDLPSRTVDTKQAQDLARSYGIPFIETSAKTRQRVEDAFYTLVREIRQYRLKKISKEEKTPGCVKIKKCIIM
Where a SMILES comes first, the peptide text is derived from it. Bridges are numbered along the chain shown (N, C = ends). [ ]: non-standard residue; d: D form. The star is where a group is joined. hPhe(3-Cl-4-CF3) = N[C@@H](CCc1ccc(C(F)(F)F)c(Cl)c1)C(=O)O; NPrPhe(4-CF3) = CCCN[C@@H](Cc1ccc(C(F)(F)F)cc1)C(=O)O; NMeGly(cPent) = CN[C@H](C(=O)O)C1CCCC1; Hyp = O=C(O)[C@@H]1C[C@@H](O)CN1; NMeD = CN[C@@H](CC(=O)O)C(=O)O; NMeL = CN[C@@H](CC(C)C)C(=O)O; Morpholide = C1CN(*)CCO1; NMeA = CN[C@@H](C)C(=O)O; Ac5c = NC1(C(=O)O)CCCC1; Aze = O=C(O)[C@@H]1CCN1; Sar = CNCC(=O)O

- Compound: "CCO[C@@H]1C[C@H]2C(=O)NC3(CCC3)C(=O)N(C)[C@@H](C3CCCC3)C(=O)N(C)[C@H](C(=O)N(C)C)CC(=O)N(C)[C@@H](CC3CCCC3)C(=O)N[C@@H]([C@@H](C)CC)C(=O)N(C)CC(=O)N(C)[C@H]3C/C=C\\CCN(C3=O)[C@@H](Cc3ccc(C)cc3)C(=O)N(C)CC(=O)N[C@@H](CCc3ccc(C4CC4)c(C)c3)C(=O)N2C1"
  Unit symbol: "nM"
  Kd: 2.1
- Compound: "CCCC[C@H]1C(=O)N[C@@H]([C@@H](C)CC)C(=O)N(C)CC(=O)N(C)[C@H]2C/C=C\\CCN(C2=O)[C@@H](Cc2ccc(C)cc2)C(=O)N(C)CC(=O)N[C@@H](CCc2cc(F)c(C(F)(F)F)c(F)c2)C(=O)N2C[C@H](OCC)C[C@H]2C(=O)NC2(CC(C)(C)C2)C(=O)N(C)[C@@H](C2CCCC2)C(=O)N(C)[C@H](C(=O)N(C)CC)CC(=O)N1C"
  Unit symbol: "nM"
  Kd: 0.43
- Compound: "CCCN1C(=O)[C@@H]2CCN2C(=O)[C@H](C)N(C)C(=O)[C@H]([C@@H](C)CC)NC(=O)[C@H](CC(C)C)N(C)C(=O)C[C@@H](C(=O)N2CCOCC2)N(C)C(=O)[C@H](C2CCCC2)N(C)C(=O)C2(CCCC2)NC(=O)[C@@H]2C[C@@H](OCC)CN2C(=O)[C@H](CCc2ccc(C(F)(F)F)c(Cl)c2)NC(=O)CN(C)C(=O)[C@@H]1Cc1ccc(C(F)(F)F)cc1 [PP0228] ([NMeL]I[NMeA][Aze][NPrPhe(4-CF3)][Sar][hPhe(3-Cl-4-CF3)][Hyp](Et)[Ac5c][NMeGly(cPent)][NMeD]-Morpholide; lactam N-11)"
  Unit symbol: "nM"
  Kd: 0.037
